Test system: L6 cells (rat skeletal myoblasts)
Assay: Cytotoxicity in the host L6 cells
Assay type: cell-based
Settings: read-out: Cyt. L6 IC50
Consider the following compounds; for each one, report its pIC50.
Give bare numbers, as −log10 of the molar value.

Kindly give each listed record's pIC50.
1. O=C(CN1CCN(c2ccc(Cl)c(Cl)c2)CC1)Nc1ncc([N+](=O)[O-])s1 [Compound 5]
2. O=C(CN1CCN(C(c2ccccc2)c2ccc(Cl)cc2)CC1)Nc1ncc([N+](=O)[O-])s1 (centres unmarked) [Compound 6]

Result:
1. 4.34
2. 4.89

Kindly give each listed record's pIC50.
1. COc1ccc(N2CCN(CC(=O)Nc3ncc([N+](=O)[O-])s3)CC2)cc1 [Compound 4]
2. O=C(CN1CCN(c2ccc(C(F)(F)F)cc2)CC1)Nc1ncc([N+](=O)[O-])s1 [Compound 3]
3. O=C(COc1ccc(Oc2ccccc2)cc1)Nc1ncc([N+](=O)[O-])s1 [Compound 12]

Result:
1: 3.84; 2: 4.33; 3: 4.28

Kindly give each listed record's pIC50.
1. O=C(CN1CCN(c2ccccn2)CC1)Nc1ncc([N+](=O)[O-])s1 [Compound 7]
2. O=C(COc1cccc(-c2ccccc2)c1)Nc1ncc([N+](=O)[O-])s1 [Compound 9]
3. O=C(COc1cccc(Oc2ccccc2)c1)Nc1ncc([N+](=O)[O-])s1 [Compound 10]
4. O=C(Nc1ncc([N+](=O)[O-])s1)c1ccc(-c2ccccc2)cc1 [Compound 8]
5. O=C(COc1ccc(-c2ccccc2)cc1)Nc1ncc([N+](=O)[O-])s1 [Compound 11]
6. Cc1ccc(N2CCN(CC(=O)Nc3ncc([N+](=O)[O-])s3)CC2)cc1 [Compound 2]

Result:
1: 4.53; 2: 4.31; 3: 4.26; 4: 5.18; 5: 4.26; 6: 3.90
